# tgt: T1, recombinant human LIGHT-214E, FLAG-tagged extracellular domain (human)
# T1 chain: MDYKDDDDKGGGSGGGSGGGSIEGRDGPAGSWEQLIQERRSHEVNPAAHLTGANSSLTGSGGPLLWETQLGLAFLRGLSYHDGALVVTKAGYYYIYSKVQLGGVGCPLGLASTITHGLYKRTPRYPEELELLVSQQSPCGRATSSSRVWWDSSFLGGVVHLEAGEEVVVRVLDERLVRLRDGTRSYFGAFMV
# assayProtocol: cell-based or functional assay
reportedMetric: HT29 IL-8 release, IC50
Quick note: unit goes after the number.

Lab note: measured HT29 IL-8 release, IC50 of 29C09 (purified from hybridoma supernatant) (antibody, V domains shown, Murine constant / human variable chimeric IgG, lambda, Protein G purified from hybridoma supernatant) VH: QEQLVQSGAEVKKPGASVKVSCKASGYTFTSYDINWVRQATGQGLEWMGWMNPNSGYTGYAQKFQGRVTMTRNTSIRTVYMELSSLRSEDTAVYYCARGGETFDIWGQGTMVTVSS VL: SYELTQPPSVSVSPGQTARITCSGDALPKKYAYWYQQKSGQAPVLVIYEDSKRPSGIPERFSGSSSGTMATLTISGAQVEDEADYYCYSTDSSDNHSVFGTGTKVTVL was 0.33 nM

Data provenance is patent US20170320956A1.
